# Test system: THP-1
# measurementDescription: Cytotoxicity against human THP1 cells after 22 hrs by MTS assay
# Assay type: functional, cell-based
# protocolConditions: THP-1, 22 h
pIC50: −log10 of the molar value.
Property: pIC50; scope: individual compounds
quantityMeasured: pIC50

> print(dat)
                                  structure  measuredvalue
1  O=C1c2ccc(Br)cc2-[n+]2ccc3c([nH]c4ccccc43)c21.[Cl-]           6.28
2  O=C1c2ccccc2-[n+]2ccc3c([nH]c4cc(Br)ccc43)c21.[Cl-]           6.79
